pIC50: −log10 of the molar value.
Collected pIC50 for Bcl-2-like protein 1 (Homo sapiens) across several studies; compounds listed below.

| compound | value.comparator | pIC50 |
| --- | --- | --- |
| CCCCN(CCCC)C(=O)c1nn(-c2ccc(C(=O)NS(=O)(=O)c3ccc4ccccc4c3)cc2C(=O)N2Cc3ccccc3C[C@H]2CN2CCCC2)c(C)c1Cl | = | 7.72 |
| Cc1c(C(F)(F)F)c(-c2cccc(N3CCN(c4ccc(NS(=O)(=O)c5ccc(N[C@H](CCN(C)C)CSc6ccccc6)c([N+](=O)[O-])c5)cc4)CC3)c2)c(-c2ccc(Cl)cc2)n1C | = | 7.89 |
| CCCCc1c(-c2ccc(C(=O)NS(=O)(=O)c3ccc4ccccc4c3)cc2C(=O)N2CCc3ccccc3C2)c(C(=O)OCC)nn1-c1cccc(Oc2ccccc2)c1 | = | 6.33 |
| Cc1oc(-c2ccc(Cl)cc2)c(-c2cccc(N3CCN(c4ccc(NS(=O)(=O)c5ccc(N[C@H](CCN(C)C)CSc6ccccc6)c([N+](=O)[O-])c5)cc4)CC3)c2)c1C(=O)O | = | 8.33 |
| CC1(C)CCN(c2ccc(C(=O)S)cc2)CC1 | < | 4.00 |
| Nc1ccc(Sc2ccc3c4c(cccc24)C2=NC(=O)C(NCCCc4ccccc4)=C23)cc1 | = | 7.74 |
| CCOC(=O)c1nn(-c2ccccc2)c(C)c1-c1ccc(C(=O)NS(=O)(=O)c2ccc3ccccc3c2)cc1C(=O)N1CCc2ccccc2C1 | = | 6.19 |
| C[C@H]1[C@@H](CC(=O)N2CCN(c3ccc(C(=O)NS(=O)(=O)c4ccc(NCC5CCOCC5)c([N+](=O)[O-])c4)c(Oc4cnc5[nH]ccc5c4)c3)CC2)O[C@@H]2O[C@]3(C)O[C@]24[C@H]1CC[C@@H](C)[C@@H]4C[C@H]3O | = | 6.12 |
| CN(C)CC[C@H](CSc1ccccc1)Nc1ccc(S(=O)(=O)Nc2ccc(N3CCN(c4cccc(-c5c(C(=O)O)nn(C)c5-c5ccc(Cl)cc5)c4)CC3)cc2)cc1[N+](=O)[O-] | = | 8.21 |
| O=C(NS(=O)(=O)c1ccc(N[C@H](CCN2CCOCC2)CSc2ccccc2)c(S(=O)(=O)C(F)(F)F)c1)c1ccc(N2CCN(Cc3ccccc3-c3ccc(Cl)cc3)CC2)cc1 | = | 7.80 |
| CN(C)CC[C@H](CSc1ccccc1)Nc1ccc(S(=O)(=O)Nc2ncnc3cc(N4CCN(Cc5ccccc5-c5ccc(Cl)cc5)CC4)ccc23)cc1[N+](=O)[O-] | = | 8.52 |
| CN(C)CC[C@H](CSc1ccccc1)Nc1ccc(S(N)(=O)=O)cc1[N+](=O)[O-] | = | 3.62 |
| CCCCN(CCCC)c1ncc(C)c(-c2ccc(C(=O)NS(=O)(=O)c3ccc4ccccc4c3)cc2C(=O)N2CCc3ccccc3C2)n1 | = | 6.92 |
| CN(CCO)c1ccc(S(=O)(=O)NC(=O)c2ccc(N3CCN(CC4=C(c5ccc(Cl)cc5)CCC(C)(C)C4)CC3)cc2)cc1S(=O)(=O)C(F)(F)F | = | 6.94 |
| CCCCN(CCCC)C(=O)c1nn(-c2ccc(C(=O)NS(=O)(=O)c3ccc4cccc(OCc5ccc(C(=O)O)cc5)c4c3)cc2C(=O)N2CCc3ccccc3C2)c(C)c1Cl | = | 7.77 |
| C[C@@H]1CC[C@H]2C(CN3CCN(c4ccc(C(=O)NS(=O)(=O)c5ccc(NCC6CCOCC6)c([N+](=O)[O-])c5)c(Oc5cnc6[nH]ccc6c5)c4)CC3)=C(C(F)(F)F)O[C@@H]3O[C@@]4(C)CC[C@@H]1[C@]32O4 | = | 6.01 |
| C[C@H]1[C@@H](CC(=O)N2CCN(c3ccc(C(=O)NS(=O)(=O)c4ccc(NCC5CCOCC5)c([N+](=O)[O-])c4)c(Oc4cnc5[nH]ccc5c4)c3)CC2)O[C@@H]2O[C@@]3(C)CC[C@H]4[C@H](C)CC[C@@H]1[C@@]24O3 | = | 6.57 |
| CCCCN(CCCC)C(=O)c1nn(-c2ccc(C(=O)NS(=O)(=O)c3ccc4c(c3)CCN4CC)cc2C(=O)N2CCc3ccccc3C2)c(C)c1Cl | = | 7.77 |
| CCCCN(CCCC)c1nccc(-c2ccc(C(=O)NS(=O)(=O)c3ccc4ccc(I)cc4c3)cc2C(=O)N2CCc3ccccc3C2)n1 | = | 6.01 |
| Cc1c(C(=O)O)c(-c2cccc(N3CCN(c4ccc(NS(=O)(=O)c5ccc(NC(CCN(C)C)CSc6ccccc6)c([N+](=O)[O-])c5)cc4)CC3)c2)c(-c2ccc(Cl)cc2)n1C (centres undefined) | = | 8.22 |
| O=C(NS(=O)(=O)c1ccc(N[C@H](CCN2CCOCC2)CSc2ccccc2)c(S(=O)(=O)C(F)(F)F)c1)c1ccc(N2CCN(Cc3ccncc3-c3ccc(Cl)cc3)CC2)cc1 | = | 7.82 |
| CCCCc1c(-c2ccc(C(=O)NS(=O)(=O)c3ccc4ccccc4c3)cc2C(=O)N2CCc3ccccc3C2)c(CO)nn1-c1ccc(Oc2ccc(Cl)cc2)cc1 | = | 7.46 |
| CC1(C)CCC(CN2CCN(c3ccc(C(=O)NS(=O)(=O)c4ccc(NCC5CCOCC5)c([N+](=O)[O-])c4)c(Oc4cnc5[nH]ccc5c4)c3)CC2)=C(c2ccccc2C(F)(F)F)C1 | = | 6.70 |
| CC1(C)CCC(c2ccc(Cl)cc2)=C(CN2CCN(c3ccc(C(=O)NS(C)(=O)=O)cc3)CC2)C1 | < | 6.00 |
